# Experimental target: FynB wt (Homo sapiens, UniProt P06241)
# Construct: Crelux construct CTX4, PC09815-1
# Sequence (P06241 whole entry): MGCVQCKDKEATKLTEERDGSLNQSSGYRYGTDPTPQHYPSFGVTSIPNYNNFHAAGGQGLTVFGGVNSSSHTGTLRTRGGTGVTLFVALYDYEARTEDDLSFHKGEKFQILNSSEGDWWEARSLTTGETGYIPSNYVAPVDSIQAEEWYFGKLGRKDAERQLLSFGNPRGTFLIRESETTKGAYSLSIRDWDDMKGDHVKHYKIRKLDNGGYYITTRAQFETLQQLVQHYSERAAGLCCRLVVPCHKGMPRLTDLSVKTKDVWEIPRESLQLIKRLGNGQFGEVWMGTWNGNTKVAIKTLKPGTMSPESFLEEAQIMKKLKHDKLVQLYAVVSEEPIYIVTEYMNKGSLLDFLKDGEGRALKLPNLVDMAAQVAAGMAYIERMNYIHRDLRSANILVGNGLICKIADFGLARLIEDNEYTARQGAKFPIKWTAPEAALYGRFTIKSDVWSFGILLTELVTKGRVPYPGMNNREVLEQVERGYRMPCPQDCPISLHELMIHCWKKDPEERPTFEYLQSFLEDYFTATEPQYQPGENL
# Protocol notes: FynB kinase inhibition assay (ADP-Glo Kinase Assay)
# Format: biochemical
pIC50: −log10 of the molar value.
Readout label: pIC50

Q: Which measured pIC50 value corresponds to C#CC(O)/C=C/C(O)CCCC(O)CC#CC(O)C#CCCCCC(O)/C=C/CCCCCC(=O)CCCCCCCCCCCCC(O)C(O)C(O)C#CC(=O)O (stereo not shown) [Osirisyne H (2), osirisyne H] ?
A: < 4.39

---

As shown below, each of these compounds has a reported pIC50 value.
# Experimental target: FynB wt (Homo sapiens, UniProt P06241)
# Construct: Crelux construct CTX4, PC09815-1
# Protocol notes: FynB kinase inhibition assay (ADP-Glo Kinase Assay)
# Assay type: biochemical
# Run conditions: 200 nM FynB wt, 10 µM Fyn substrate, 100 µM ATP, preincubated 90 min, 22 °C; read-out: IC50 FynB Kinase Inhibition
pIC50: −log10 of the molar value.

C#CC(O)/C=C/C(O)CCCC(O)CC#CC(O)C#CCCCCC(O)/C=C/CCCC(O)/C=C/CCCCCCCCCCCCCC(O)C(O)C#CC(=O)O (centres unmarked) [Osirisyne E (6), osirisyne E]
< 4.38
C#CC(O)/C=C/C(O)CCCC(O)CC#CC(O)C#CC(O)CCCC(O)/C=C/CCCCCC(=O)CCCCCCCCCCCCC(O)C(O)C(O)C#CC(=O)O (centres unmarked) [Osirisyne G (1), osirisyne G]
< 4.40
C#CC(O)/C=C/C(O)CCCC(O)CC#CC(O)C#CC(O)CCCC(O)/C=C/CCCCCC(=O)CCCCCCCCCCCCCC(O)C(O)C#CC(=O)O (centres unmarked) [Osirisyne A (4), osirisyne A]
< 4.39
C#CC(O)/C=C/C(O)CCCC(O)CC#CC(O)C#CCCCCC(O)/C=C/CCCCCC(=O)CCCCCCCCCCCCCC(O)C(O)C#CC(=O)O (centres unmarked) [Osirisyne B (5), osirisyne B]
4.73

Let us move to another entry and its pIC50.
Q: Which measured pIC50 value corresponds to C#CC(O)/C=C/C(O)CCCC(O)CC#CC(O)C#CC(O)CCCC(O)/C=C/CCCC(O)/C=C/CCCCCCCCCCCCCC(O)C(O)C#CC(=O)O (centres unmarked) [Osirisyne I (3), osirisyne I] ?
A: < 4.39

---

As shown below, each of these compounds has a reported pIC50 value.
# Experimental target: Yeast proteasome (Saccharomyces cerevisiae, UniProt P30656)
pIC50: −log10 of the molar value.

C#CC(O)/C=C/C(O)CCCC(O)CC#CC(O)C#CCCCCC(O)/C=C/CCCC(O)/C=C/CCCCCCCCCCCCCC(O)C(O)C#CC(=O)O (centres unmarked) [Osirisyne E (6), osirisyne E]
< 4.38

Q: Value wanted: pIC50 (Yeast proteasome (Saccharomyces cerevisiae, UniProt P30656)) of entry C#CC(O)/C=C/C(O)CCCC(O)CC#CC(O)C#CC(O)CCCC(O)/C=C/CCCCCC(=O)CCCCCCCCCCCCCC(O)C(O)C#CC(=O)O (centres unmarked) [Osirisyne A (4), osirisyne A]
A: < 4.39

Q: Value wanted: pIC50 (Yeast proteasome (Saccharomyces cerevisiae, UniProt P30656)) of entry C#CC(O)/C=C/C(O)CCCC(O)CC#CC(O)C#CCCCCC(O)/C=C/CCCCCC(=O)CCCCCCCCCCCCCC(O)C(O)C#CC(=O)O (centres unmarked) [Osirisyne B (5), osirisyne B]
A: 6.59

Q: Value wanted: pIC50 (Yeast proteasome (Saccharomyces cerevisiae, UniProt P30656)) of entry C#CC(O)/C=C/C(O)CCCC(O)CC#CC(O)C#CC(O)CCCC(O)/C=C/CCCCCC(=O)CCCCCCCCCCCCC(O)C(O)C(O)C#CC(=O)O (centres unmarked) [Osirisyne G (1), osirisyne G]
A: < 4.40

Q: Value wanted: pIC50 (Yeast proteasome (Saccharomyces cerevisiae, UniProt P30656)) of entry C#CC(O)/C=C/C(O)CCCC(O)CC#CC(O)C#CC(O)CCCC(O)/C=C/CCCC(O)/C=C/CCCCCCCCCCCCCC(O)C(O)C#CC(=O)O (centres unmarked) [Osirisyne I (3), osirisyne I]
A: < 4.39

---

# Experimental target: CDK7 (Homo sapiens, UniProt P50613)
# Sequence (P50613 whole entry, species assumed): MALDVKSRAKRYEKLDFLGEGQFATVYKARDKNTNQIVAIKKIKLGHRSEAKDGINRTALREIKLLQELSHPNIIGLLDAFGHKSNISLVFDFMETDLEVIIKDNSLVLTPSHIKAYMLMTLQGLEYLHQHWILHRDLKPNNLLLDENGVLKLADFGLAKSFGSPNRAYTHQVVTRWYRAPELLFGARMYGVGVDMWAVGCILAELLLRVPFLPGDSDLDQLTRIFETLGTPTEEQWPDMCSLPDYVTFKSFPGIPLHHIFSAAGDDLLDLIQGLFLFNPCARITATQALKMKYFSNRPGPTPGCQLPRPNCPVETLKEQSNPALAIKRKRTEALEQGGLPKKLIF
Readout label: IC50 (µM)
Express it in µM; write the number only.

Q: Value wanted: IC50 (CDK7 (Homo sapiens, UniProt P50613)) of entry C#CC(O)/C=C/C(O)CCCC(O)CC#CC(O)C#CCCCCC(O)/C=C/CCCCCC(=O)CCCCCCCCCCCCCC(O)C(O)C#CC(=O)O (centres unmarked) [Osirisyne B (5), osirisyne B]
A: 9.13
